Value source: patent US12686673B2

Biological target: HER2 (A775_G776insYVMA) expressing Ba/F3 stable cell line (Homo sapiens, UniProt P04626, DUP772-775, cells depend on it)
Sequence (P04626 with tags, fused parts or gaps DUP772-775): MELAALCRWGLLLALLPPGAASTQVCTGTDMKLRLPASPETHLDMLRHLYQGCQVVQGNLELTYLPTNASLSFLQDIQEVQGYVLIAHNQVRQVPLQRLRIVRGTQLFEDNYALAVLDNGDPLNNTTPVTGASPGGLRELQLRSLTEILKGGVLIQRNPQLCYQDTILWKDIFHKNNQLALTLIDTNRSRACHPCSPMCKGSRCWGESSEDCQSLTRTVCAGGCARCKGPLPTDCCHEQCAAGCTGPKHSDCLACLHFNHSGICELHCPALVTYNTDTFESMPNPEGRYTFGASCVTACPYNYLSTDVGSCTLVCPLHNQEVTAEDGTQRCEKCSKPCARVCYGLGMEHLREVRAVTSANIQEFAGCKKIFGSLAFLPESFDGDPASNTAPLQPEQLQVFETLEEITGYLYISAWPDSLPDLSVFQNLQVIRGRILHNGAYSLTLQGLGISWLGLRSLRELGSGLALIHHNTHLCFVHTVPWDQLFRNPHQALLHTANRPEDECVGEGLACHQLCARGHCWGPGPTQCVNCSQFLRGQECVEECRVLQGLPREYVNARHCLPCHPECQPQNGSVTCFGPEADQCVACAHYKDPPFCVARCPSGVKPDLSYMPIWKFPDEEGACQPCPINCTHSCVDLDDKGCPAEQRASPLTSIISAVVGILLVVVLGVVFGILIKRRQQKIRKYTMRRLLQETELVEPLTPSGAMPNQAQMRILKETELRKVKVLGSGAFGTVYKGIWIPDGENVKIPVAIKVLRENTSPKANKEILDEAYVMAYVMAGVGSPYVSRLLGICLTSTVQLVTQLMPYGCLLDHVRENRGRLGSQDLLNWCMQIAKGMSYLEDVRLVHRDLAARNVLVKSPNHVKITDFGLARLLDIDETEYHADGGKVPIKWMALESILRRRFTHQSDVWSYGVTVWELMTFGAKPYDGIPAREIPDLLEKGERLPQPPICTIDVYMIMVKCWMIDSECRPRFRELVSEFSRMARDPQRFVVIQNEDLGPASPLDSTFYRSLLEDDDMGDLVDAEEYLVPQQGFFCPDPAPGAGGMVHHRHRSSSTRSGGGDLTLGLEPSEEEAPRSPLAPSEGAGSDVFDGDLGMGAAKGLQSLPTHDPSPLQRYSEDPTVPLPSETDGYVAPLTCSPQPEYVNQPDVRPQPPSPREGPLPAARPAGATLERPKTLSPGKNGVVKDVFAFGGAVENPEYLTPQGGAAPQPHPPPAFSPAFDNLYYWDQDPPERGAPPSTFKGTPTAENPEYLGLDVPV
Assay: Cellular proliferation (Alamar Blue) assay, HER2 A775_G776insYVMA Ba/F3
Format: cell-based
Details: 72 hr, read-out: YVMA IC50
Where a name gives a salt, the structure may show the parent alone.
Parameter: GI50 (nM)

Please review the entries below; each comes with its answer.
| Compound | Recorded measurement |
| --- | --- |
| C#CC(=O)Nc1ccc(F)c(Nc2nc(Nc3cnn(C)c3)ncc2-c2ccc(C(F)(F)F)cc2)c1 [Compound 254] | 8670 |
| C=CC(=O)Nc1ccc(F)c(Nc2nc(Nc3cnn(C)c3)ncc2-c2cccc(F)c2)c1 [Compound 88] | 198 |
| C=CC(=O)Nc1ccc(F)c(Nc2nc(Nc3cnn(C)c3)ncc2-c2cccc3ccccc23)c1 [Compound 136, trifluoroacetate] | 412 |
| C=CC(=O)Nc1ccc(F)c(Nc2nc(Nc3cnn(C)c3)ncc2-c2csc(Cl)c2)c1 [Compound 298] | 402 |
| C=CC(=O)Nc1cc(F)cc(Nc2nc(Nc3cnn(C)c3)ncc2-c2ccc(C(F)(F)F)cc2)c1 [Compound 239] | 251 |
| C=CC(=O)Nc1ccc(F)c(Nc2nc(Nc3ccc(N(C)CCN(C)C)cc3)ncc2Cl)c1 [Compound 288] | 3040 |
| C=CC(=O)Nc1cccc(Oc2nc(Nc3cnn(C)c3)ncc2-c2ccc(Cl)nc2)c1 [Compound 185] | 113 |
| C=CC(=O)Nc1ccc(F)c(Nc2nc(Nc3cn(C)nc3Cl)ncc2-c2ccc(C(F)(F)F)cc2)c1 [Compound 112, trifluoroacetate] | 288 |

(P) C/C=C/C(=O)Nc1ccc(F)c(Nc2nc(Nc3cnn(C)c3)ncc2Cl)c1 [Compound 11]
(Q) C=CC(=O)Nc1ccc(F)c(Nc2nc(Nc3cnn(C)c3)ncc2C#CC2CC2)c1 [Compound 244]
(R) C=CC(=O)Nc1cc(F)cc(Nc2nc(Nc3cnn(C)c3)ncc2-c2ccc(CC(F)(F)F)cc2)c1 [Compound 295]
(S) C=CC(=O)Nc1cccc(Nc2nc(Nc3cnn(C)c3)ncc2-c2ccc(Br)cc2)c1 [Compound 274]
(T) C=CC(=O)Nc1ccc(F)c(Nc2nc(Nc3cnn(C)c3)ncc2-c2cccc(Br)c2)c1 [Compound 201]
[ask] List items by GI50 in falling order. Answer by writing out the labels in the requested order.
[reply] P, Q, T, R, S

(1) C=CC(=O)Nc1ccc(Cl)c(Nc2nc(Nc3cnn(C)c3)ncc2Cl)c1 [Compound 8]
(2) C=CC(=O)Nc1cccc(Nc2nc(Nc3cnn(C)c3)ncc2-c2ccc(F)nc2)c1 [Compound 74]
(3) C=CC(=O)Nc1cccc(Oc2nc(Nc3cnn(C)c3)ncc2-c2ccc(C(F)F)cc2)c1 [Compound 105]
[ask] Put the entries in order of GI50, starting with the largest number. Reply format: the labels, ordered as requested.
[reply] 1, 3, 2

(a) C=CC(=O)Nc1cc(Br)cc(Nc2nc(Nc3cnn(C)c3)ncc2Cl)c1 [Compound 283]
(b) C=CC(=O)Nc1ccc(F)c(Nc2nc(Nc3cnn(C)c3)ncc2-c2ccc3ncnn3c2)c1 [Compound 279]
[ask] Just tell me: smaller GI50 value, a or b ? API: response body contains the label of the selected item.
[reply] b
(b: 471 nM, a: 1480 nM)
